Biological target: ITK (Homo sapiens, UniProt Q08881)
Sequence (Q08881 whole entry): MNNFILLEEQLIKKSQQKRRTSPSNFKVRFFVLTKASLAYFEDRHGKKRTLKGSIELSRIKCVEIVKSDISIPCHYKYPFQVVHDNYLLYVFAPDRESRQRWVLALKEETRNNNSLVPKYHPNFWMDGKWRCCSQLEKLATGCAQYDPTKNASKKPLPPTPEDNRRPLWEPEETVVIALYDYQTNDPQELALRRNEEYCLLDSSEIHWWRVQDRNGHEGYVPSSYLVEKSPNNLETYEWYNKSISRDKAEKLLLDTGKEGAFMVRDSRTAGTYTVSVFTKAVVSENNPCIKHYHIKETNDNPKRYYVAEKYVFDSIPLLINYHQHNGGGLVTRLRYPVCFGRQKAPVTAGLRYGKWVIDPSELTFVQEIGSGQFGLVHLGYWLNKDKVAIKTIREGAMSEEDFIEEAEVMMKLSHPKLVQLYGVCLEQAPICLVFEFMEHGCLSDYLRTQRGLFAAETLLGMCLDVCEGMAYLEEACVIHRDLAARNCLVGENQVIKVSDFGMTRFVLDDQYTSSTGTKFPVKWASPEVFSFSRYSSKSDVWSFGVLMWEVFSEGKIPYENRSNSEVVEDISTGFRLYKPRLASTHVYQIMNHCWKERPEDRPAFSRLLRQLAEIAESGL
Examples of compounds with documented pKi follow.
# log scale: pKi equals minus log10 of the concentration in mol/L

Below, 2 compounds whose answers are already recorded.
> print(dat)
                                   compound  recorded.endpoint  recorded.value
1  CC1(C)CCc2c(C(=O)Nc3cnn(C4COCC4c4ccccc4)c3)n[nH]c2C1 (single isomer, unassigned) [Example 132b]                pKi            8.00
2  CC1(C)CCc2c(C(=O)Nc3cnn(C(c4cccnc4)C4CS(=O)(=O)C4)c3)n[nH]c2C1 (single isomer, unassigned) [Example 117a]                pKi            9.70

Read the next record carefully.
**Query** May I ask what pKi has been recorded for COc1ccc(C(C)n2cc(NC(=O)c3n[nH]c4c3CCC(C)(C)C4)cn2)cn1 (single isomer, unassigned) [Example 109a] ?
**Result** 8.40
